Origin of values: PubChem BioAssay AID1445

Biological target: Aminopeptidase N (Plasmodium falciparum (isolate 3D7)) (UniProt O96935)
Sequence (O96935 whole entry, looked up): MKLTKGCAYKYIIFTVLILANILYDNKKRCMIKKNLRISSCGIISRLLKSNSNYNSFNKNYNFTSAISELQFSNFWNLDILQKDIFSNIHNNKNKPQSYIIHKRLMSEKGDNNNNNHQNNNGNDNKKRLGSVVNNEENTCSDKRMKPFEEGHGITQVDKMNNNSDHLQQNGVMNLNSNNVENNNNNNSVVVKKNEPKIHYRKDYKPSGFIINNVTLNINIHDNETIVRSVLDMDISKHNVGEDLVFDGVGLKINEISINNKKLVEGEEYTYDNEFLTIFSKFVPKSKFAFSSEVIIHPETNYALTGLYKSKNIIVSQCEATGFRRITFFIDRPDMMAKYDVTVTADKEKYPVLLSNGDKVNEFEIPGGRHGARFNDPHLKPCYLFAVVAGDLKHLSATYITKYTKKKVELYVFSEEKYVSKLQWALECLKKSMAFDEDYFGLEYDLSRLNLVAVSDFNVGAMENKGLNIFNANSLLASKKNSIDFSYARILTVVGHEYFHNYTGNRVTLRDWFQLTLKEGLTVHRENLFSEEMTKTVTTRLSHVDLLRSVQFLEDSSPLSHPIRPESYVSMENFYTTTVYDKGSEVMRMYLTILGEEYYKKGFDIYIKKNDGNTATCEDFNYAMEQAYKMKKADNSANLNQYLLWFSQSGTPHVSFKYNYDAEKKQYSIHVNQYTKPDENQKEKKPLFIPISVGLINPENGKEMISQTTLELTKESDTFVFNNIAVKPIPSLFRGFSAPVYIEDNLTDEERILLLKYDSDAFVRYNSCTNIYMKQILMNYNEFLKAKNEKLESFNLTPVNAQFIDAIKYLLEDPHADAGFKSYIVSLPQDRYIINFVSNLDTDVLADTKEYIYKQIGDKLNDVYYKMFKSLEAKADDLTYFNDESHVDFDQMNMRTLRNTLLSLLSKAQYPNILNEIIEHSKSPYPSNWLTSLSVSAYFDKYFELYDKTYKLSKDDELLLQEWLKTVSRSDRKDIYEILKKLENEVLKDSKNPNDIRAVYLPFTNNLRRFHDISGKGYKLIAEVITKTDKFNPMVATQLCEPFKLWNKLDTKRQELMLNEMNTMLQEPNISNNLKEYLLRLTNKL
Test: malaria alanyl aminopeptidase activity blockers – biochemical, fluorogenic H-Leu-NHMec substrate, 1536-well (AID 1445);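 further: plate controls were DMSO full reaction for no effect and no enzyme background for full effect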
Settings: recombinant M1AAP, H-Leu-NHMec fluorogenic kinetic assay; at 30 µM, hits give high values unless noted
The whole screen tested about 220,000 compounds, of which about 910 (0.41%) were called active. The list comes from a sample in which actives are over-represented; it also holds close analogues and randomly drawn compounds. Measured potencies and affinities stand elsewhere.
propertyLabel: inhibition (%)

>>> assayresult("O=[N+]([O-])c1ccc(N/N=C\\c2cccnc2)nc1")
6.43
>>> assayresult("CCOC(=O)C1(CCOc2ccccc2)CCN(Cc2cccc3nonc23)CC1")
11.9
>>> assayresult("Cc1ccc(CNC(=O)CSc2nc3ccsc3c(=O)n2Cc2ccccn2)cc1")
15.8
>>> assayresult("Cc1ccc(CNC(=O)CSc2nc3ccsc3c(=O)n2Cc2ccc(C(=O)O)cc2)cc1")
33.8
>>> assayresult("COc1ccc(-n2c(SCC(=O)NCCC(C)C)nc3ccsc3c2=O)cc1")
-0.48
>>> assayresult("COC(=O)c1ccc(OC(=O)CCN2c3ccccc3Sc3ccccc32)cc1")
-4.42
>>> assayresult("COc1ccc(C(=O)Nn2c(SCC(=O)NCc3ccco3)nc3ccccc3c2=O)cc1")
1.81
>>> assayresult("Cc1nc(NS(=O)(=O)c2ccccc2)sc1C(=O)NN")
6.77
>>> assayresult("CCCN(CCC)C(=O)CSc1nc2ccsc2c(=O)n1NC(=O)c1ccccc1")
2.56
>>> assayresult("Cc1ccc(S(=O)(=O)Nc2nc(C)c(C(=O)NNS(=O)(=O)c3ccccc3)s2)cc1")
3.2

----------
Target: Aminopeptidase N (Plasmodium falciparum (isolate 3D7)) (UniProt O96935)
Test: malaria alanyl aminopeptidase activity blockers – biochemical, fluorogenic H-Leu-NHMec substrate, 1536-well (AID 1445);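 further: plate controls were DMSO full reaction for no effect and no enzyme background for full effect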
Settings: recombinant M1AAP, H-Leu-NHMec fluorogenic kinetic assay; at 30 µM, hits give high values unless noted
Hit rate of the full screen: of about 220,000 compounds, about 910 (0.41%) were called active. For the sample, actives were picked, then their nearest neighbours and some compounds at random. Measured potencies and affinities stand elsewhere.
Each entry below carries its reported inhibition.
propertyLabel: inhibition (%)

>>> assayresult("CC(C)(C)NC(=O)CN(Cc1ccc2c(c1)OCO2)C(=O)CCC(=O)Nc1nccs1")
3.84
>>> assayresult("CC1CCc2nc3ccc(S(=O)(=O)N4CCC(C(=O)N5CCCCCC5)CC4)cc3c(C(=O)O)c2C1 (stereo not drawn)")
13.6
>>> assayresult("CCCc1cc(=O)oc2cc(C)cc(OCc3nn[nH]n3)c12")
17.7

----------
Molecular target: Aminopeptidase N (Plasmodium falciparum (isolate 3D7)) (UniProt O96935)
Assay: malaria alanyl aminopeptidase activity blockers – biochemical, fluorogenic H-Leu-NHMec substrate, 1536-well (AID 1445);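 further: plate controls were DMSO full reaction for no effect and no enzyme background for full effect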
Details: recombinant M1AAP, H-Leu-NHMec fluorogenic kinetic assay; at 30 µM
In all, about 220,000 compounds went through this assay and about 910 (0.41%) were called active.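 The calls were made as follows: active = primary inhibition above the hit cutoff, then over 50% inhibition at one or more dose response concentrations (cut at about 23% in these data, passing the limit was not always enough); inconclusive = conflicting primary data, or primary hits not chosen for dose response; inactive = low primary inhibition, or under 50% at every dose.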 The full list was thinned out, with actives kept by preference. Potency and affinity values are given separately.
Classes used: 1 (yes) (active), 0 (no) (inactive)

>>> labelclass("O=C1NN(c2ccccc2)C(=O)/C1=C/c1ccc(-c2ccc(Cl)c(C(=O)O)c2)o1")
"0 (no)"
>>> labelclass("Cc1ccccc1NS(=O)(=O)c1cc(C(=O)N2CCCC2)ccc1C")
"0 (no)"
>>> labelclass("COc1ccc(OCCSc2nnc(CC(=O)Nc3cccc(Cl)c3Cl)n2C)cc1")
"1 (yes)"
>>> labelclass("Cc1ccc(N(Cc2ccccc2F)S(C)(=O)=O)cc1C")
"0 (no)"
>>> labelclass("CC(NC(=O)c1cc(-c2ccc3c(c2)OCO3)nc2ccccc12)C(C)(C)C (stereo unspecified)")
"0 (no)"
>>> labelclass("O=[n+]1c2c(n([O-])c3ccccc31)CCCC2")
"0 (no)"
>>> labelclass("COc1cc(C(=O)Nc2ccc([N+](=O)[O-])cn2)cc(OC)c1OC")
"0 (no)"
>>> labelclass("CCCCC1(C)OC(=O)C(=Cc2ccc(-c3ccc(Cl)c(C(=O)O)c3)o2)C(=O)O1 (stereo unspecified)")
"0 (no)"
>>> labelclass("O=C(COc1ccccc1)Nc1ccc([N+](=O)[O-])cc1")
"0 (no)"
>>> labelclass("CC1=NOC(=O)/C1=C/c1ccc(-c2ccc(Cl)cc2)o1")
"0 (no)"
>>> labelclass("CCCn1c(C)cc(/C=C(\\C#N)C(=O)OCC(=O)NC(=O)NCC)c1C")
"0 (no)"
>>> labelclass("O=C(CSc1nnc(NC2CCCCC2)s1)Nc1ccc(N2CCOCC2)cc1")
"0 (no)"
>>> labelclass("CC1CCCCN1C(=O)COc1ccc2ccc(=O)oc2c1 (stereo unspecified)")
"0 (no)"
>>> labelclass("COc1cc(OC)c(NC(C)C(=O)N2CCCC2)cc1Cl (stereo unspecified)")
"0 (no)"
>>> labelclass("O=[n+]1c2c(n([O-])c3ccccc31)CCC2")
"1 (yes)"
>>> labelclass("CCn1c(CC(=O)Nc2cccc(Cl)c2Cl)nnc1SCCOc1ccc(OC)cc1")
"0 (no)"
>>> labelclass("O=C(COc1cccc2cccnc12)Nc1ccccc1")
"0 (no)"
>>> labelclass("CCn1c(COc2ccc(=O)n(-c3ccccc3)n2)nnc1SCc1ccccc1")
"0 (no)"
>>> labelclass("COc1cccc(NC(=O)Cc2nnc(SCCOc3ccccc3)n2C)c1")
"0 (no)"
>>> labelclass("CCOC(=O)Cc1cc(=O)n2[nH]c(C(C)(C)C)cc2n1")
"0 (no)"
>>> labelclass("O=C(COc1ccccc1[N+](=O)[O-])Nc1ccc(Br)cc1")
"0 (no)"

----------
Target: Aminopeptidase N (Plasmodium falciparum (isolate 3D7)) (UniProt O96935)
Experiment: malaria alanyl aminopeptidase activity blockers – biochemical, fluorogenic H-Leu-NHMec substrate, 1536-well (AID 1445);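 further: plate controls were DMSO full reaction for no effect and no enzyme background for full effect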
Details: recombinant M1AAP, H-Leu-NHMec fluorogenic kinetic assay; at 30 µM, hits give high values unless noted
Hit rate of the full screen: of about 220,000 compounds, about 910 (0.41%) were called active. The full list was thinned out, with actives kept by preference. Potency and affinity values are given separately.
propertyLabel: inhibition (%)

>>> assayresult("CCCC(c1nnnn1CC1CCCO1)N1CCN(c2ccccc2)CC1 (stereo not given)")
7.5
>>> assayresult("Cc1ccc(CN2CCN(/N=C/c3ccc(C(F)(F)F)cc3)CC2)cc1")
5.42
>>> assayresult("COc1ccccc1NS(=O)(=O)c1cc(NC(=O)c2cccs2)ccc1N1CCOCC1")
3.5
>>> assayresult("CC(C)N(C)C1CCN(C(=O)Nc2ccc(Cl)cc2)CC1")
3.02
>>> assayresult("Cc1nc2ccc(Cl)cc2nc1C")
5.55
>>> assayresult("CCc1cccc(C)c1NC(=O)COC(=O)c1ccc2c(c1)S(=O)(=O)c1ccccc1C2=O")
1.58
>>> assayresult("O=C(O)COc1ccccc1C(Nc1ccccn1)c1cc(Cl)c2cccnc2c1O (stereo not given)")
23.1
>>> assayresult("COCCNC(=S)Nc1ccc(N2CCCCC2)cc1")
2.09
>>> assayresult("CCC(CC)NC(=O)c1cccc(Br)c1")
4.75
>>> assayresult("COC(=O)[C@@H]1CC[C@H](C)[C@@H](c2ccc(C)cc2)N1C(=O)c1ccc(/C=N/OC[C@@H](O)[C@H]2O[C@@H]3OC(C)(C)O[C@@H]3[C@H]2O)cc1")
7.48
>>> assayresult("C=CCn1c(C(CC)CC(C)(C)O)n[nH]c1=S (stereo not given)")
-5.97
>>> assayresult("O=C(NCc1ccccc1)c1onc(CSc2ccccn2)c1C(=O)NCc1ccccc1")
4.51
>>> assayresult("CCn1c(SCC(=O)N/N=C/c2cc(OC)c(O)c(OC)c2)nc2ccccc21")
3.33
>>> assayresult("CCN(CC)C(C(=O)NC1CCCCC1)c1ccc(C)cc1 (stereo not given)")
-1.29
>>> assayresult("COc1cc(NC(=O)c2ccc([N+](=O)[O-])o2)ccc1NC(=O)c1cccs1")
4.73
>>> assayresult("O=C(NN1C(=O)c2ccccc2NC1c1ccoc1)c1ccc([N+](=O)[O-])cc1 (stereo not given)")
4.32
>>> assayresult("O=C(Nc1cccc(NC(=O)c2cccs2)c1)c1ccco1")
14.8
>>> assayresult("c1ccc(-c2nc3nc4ccccc4nc3n2CC2CCCO2)cc1 (stereo not given)")
15.8
>>> assayresult("Oc1ccccc1N=Nc1nc(-c2ccccc2)c(-c2ccccc2)[nH]1")
-7.75
>>> assayresult("COc1cccc(/C=N\\NC(=O)Cn2nnc3ccccc32)c1O")
1.18
>>> assayresult("CCOC(=O)C1CCCN(C(=O)c2cc(-c3ccc(F)cc3)nc3ccccc23)C1 (stereo not given)")
0.66
>>> assayresult("Cc1ccc(Cl)cc1N1CCN(C(CC(C)C)c2nnnn2CC2CCCO2)CC1 (stereo not given)")
-6.33
>>> assayresult("CC(C)(C)NC(=O)COC(=O)c1nsc(Cl)c1Cl")
0.52
>>> assayresult("CCCOc1ccc(C(=O)Nc2ccc(S(=O)(=O)Nc3onc(C)c3C)cc2)cc1")
-1.24
>>> assayresult("CCN1C(=O)/C(=c2\\sc3nc(=O)c(Cc4ccccc4)nn3c2=O)c2ccccc21")
7.93
>>> assayresult("Cc1ccc(C(=O)N/N=C\\c2ccc(-c3ccc(Cl)cc3)o2)cn1")
8.72
>>> assayresult("Cc1ccc(C(=O)Cn2nnc3ccccc32)cc1C")
5.82
>>> assayresult("CNCc1ccccc1Sc1ccc(OC)cc1")
-3.58
>>> assayresult("CCOc1ccccc1-n1c(COc2ccccc2)nnc1SCC(N)=O")
6.25
>>> assayresult("CC1=C(C(=O)Nc2ccccn2)C(c2cn(C)nc2C)C2=C(CCCC2=O)N1 (stereo not given)")
9.42
>>> assayresult("Cc1ccc(NC(=O)Cn2c(/C=C/c3ccccc3)nc3ccccc32)cc1C")
7.46
>>> assayresult("Cc1noc(NS(=O)(=O)c2ccc(NC(=O)c3ccc(OC(C)C)cc3)cc2)c1C")
4.64
>>> assayresult("Cc1cc(SCC(=O)N/N=C/c2ccc(O)c(O)c2)c(C)cc1Br")
-0.74
>>> assayresult("Fc1ccccc1-c1nc2nc3ccccc3nc2n1CC1CCCO1 (stereo not given)")
14.5
>>> assayresult("CSc1nnc(C)c(=O)n1COC(=O)COc1ccccc1")
0.02
>>> assayresult("Cc1[nH]c2ccccc2c1/C=N/Nc1cccc(C(=O)O)c1")
11.9
>>> assayresult("C=CCN1C(=O)/C(=c2\\sc3nc(=O)c(Cc4ccc(OC)c(OC)c4)nn3c2=O)c2ccccc21")
11.6
>>> assayresult("O=C(NCCn1ccc2ccccc21)c1ccc(S(=O)(=O)N2CCOCC2)cc1")
8.48
>>> assayresult("CCOc1ccc(S(=O)(=O)N(CC(=O)N/N=C/c2ccc(-c3ccc([N+](=O)[O-])cc3)o2)c2ccccc2)cc1")
15.9
>>> assayresult("O=c1c(=Nc2ccccc2O)c(=O)c2ccccc12")
-8.18
